- Tested target: hcGAS (Homo sapiens)
- Test method notes: hcGAS LCMS assay (direct measurement of cGAMP production by LC/MS)
- Format: biochemical
- Cond: 4 h incubation with enzyme and substrates; cGAMP production by LC/MS; class symbols; read-out: hcGAS LCMS IC50
pIC50: −log10 of the molar value.
Recorded endpoint: pIC50

Molecule	pIC50
COc1cccnc1-c1cc(C(=O)Nc2nnc(-n3nccc3N)s2)oc(=O)c1O[C@H]1CC[C@H](O)C1 (single isomer, unassigned) [112B*]	8.30 to 9.00

Switching to the query record.
Challenge: Fill blank: measured pIC50 of the molecule COC[C@H](CO)Oc1c(-c2c(OC)cccc2OC)cc(C(=O)Nc2nnc(-n3nccc3N)s2)oc1=O [Compound 62A*] is ____.
Response given: 9.00 to 9.30

====

- Tested target: hcGAS (Homo sapiens)
- Test method notes: hcGAS LCMS assay (direct measurement of cGAMP production by LC/MS)
- Format: biochemical
- Cond: 4 h incubation with enzyme and substrates; cGAMP production by LC/MS; class symbols; read-out: hcGAS LCMS IC50
pIC50: −log10 of the molar value.
Recorded endpoint: pIC50

// solved cases for pIC50 follow
Compound	pIC50
COc1cccc(OC)c1-c1cc(C(=O)Nc2nnc(-n3nccc3N)s2)oc(=O)c1OC1CC(O)C1 (single isomer, unassigned) [Compound 57B]	> 9.30
COCCOc1c(-c2c(O)cccc2Cl)cc(C(=O)Nc2nnc(-n3nccc3N)s2)oc1=O	> 9.30

Challenge: Would you kindly share the measured pIC50 for COCCOc1c(-c2c(C#N)cccc2COC)cc(C(=O)Nc2nnc(-n3nccc3N)s2)oc1=O ?
Response given: 8.30 to 9.00

Challenge: How about COCCOc1c(-c2c(OC)cccc2OCCC#N)cc(C(=O)Nc2nnc(-n3nccc3N)s2)oc1=O ?
Response given: 8.30 to 9.00

Challenge: Then this compound: COCC(CN1CCOCC1)Oc1c(-c2c(OC)cccc2OC)cc(C(=O)Nc2nnc(-n3nccc3N)s2)oc1=O (centres unmarked) [84A*/84B*]
Response given: 7.70 to 8.30

Challenge: Now try COc1cccc(OC)c1-c1cc(C(=O)Nc2nnc(-n3nccc3N)s2)oc(=O)c1OC[C@@H]1CCCO1 [56A*] .
Response given: 9.00 to 9.30

====

compounds and their reported pIC50
- Tested target: UniProtKB Q8N884
- Test method notes: hcGAS LCMS assay (direct measurement of cGAMP production by LC/MS)
- Type: biochemical
- Cond: 4 h incubation with enzyme and substrates; cGAMP production by LC/MS; class symbols; read-out: hcGAS LCMS IC50
pIC50: −log10 of the molar value.

These solved cases illustrate the format of a correct answer.
Compound	Tested target	pIC50
COCCOc1c(-c2ncccc2C#N)cc(C(=O)Nc2nnc(-n3nccc3N)s2)oc1=O [Compound 9]	UniProtKB Q8N884	9.00 to 9.30
COc1cccc(OC)c1-c1cc(C(=O)Nc2nnc(-n3nccc3N)s2)oc(=O)c1OCC1CSCCO1 (stereo not drawn) [83A*/83B*]	UniProtKB Q8N884	9.00 to 9.30

Please examine the following record next.
Challenge: Checklist item: pIC50 tested on UniProtKB Q8N884, entry COc1cccc(OC)c1-c1cc(C(=O)Nc2nnc(-n3nccc3N)s2)oc(=O)c1OCC(O)CN1CCSCC1 (stereo not drawn) [91A*/91B*] , value?
Response given: 9.00 to 9.30

====

- Tested target: hcGAS (Homo sapiens, UniProt Q8N884)
- Sequence (Q8N884 whole entry): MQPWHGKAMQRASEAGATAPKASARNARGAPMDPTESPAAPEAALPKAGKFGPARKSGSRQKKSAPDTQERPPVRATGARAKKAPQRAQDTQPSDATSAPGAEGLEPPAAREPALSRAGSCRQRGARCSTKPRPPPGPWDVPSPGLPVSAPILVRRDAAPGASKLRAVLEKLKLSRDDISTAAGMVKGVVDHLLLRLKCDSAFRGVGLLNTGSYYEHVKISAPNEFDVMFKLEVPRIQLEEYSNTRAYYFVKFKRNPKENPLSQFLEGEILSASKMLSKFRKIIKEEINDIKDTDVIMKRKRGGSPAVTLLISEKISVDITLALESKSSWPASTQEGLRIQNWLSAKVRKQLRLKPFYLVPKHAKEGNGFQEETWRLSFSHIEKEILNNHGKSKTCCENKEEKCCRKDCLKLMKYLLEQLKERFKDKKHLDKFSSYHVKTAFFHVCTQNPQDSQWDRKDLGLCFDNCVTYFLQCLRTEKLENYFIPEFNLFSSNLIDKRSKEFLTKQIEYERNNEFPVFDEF
- Test method notes: hcGAS LCMS assay (direct measurement of cGAMP production by LC/MS)
- Type: biochemical
- Cond: 4 h incubation with enzyme and substrates; cGAMP production by LC/MS; class symbols; read-out: hcGAS LCMS IC50
Recorded endpoint: IC50

Before answering, review these 8 worked examples.
Molecule	Recorded endpoint	Result
COc1cccc(OC)c1-c1cc(C(=O)Nc2nnc(-n3nccc3N)s2)oc(=O)c1OC[C@H](C)O [Compound 46B]	IC50	< 0.5 nM
COCCOc1c(-c2c(OC)cccc2OC)cc(C(=O)Nc2nnc(-c3c(Cl)ccn3C)s2)oc1=O	IC50	< 0.5 nM
COc1cccc(OC)c1-c1cc(C(=O)Nc2nnc(-n3nccc3N)s2)oc(=O)c1OC[C@@H](C)OC	IC50	0.5 to 1 nM
COc1c(-c2ccccc2C#N)cc(C(=O)Nc2nnc(-n3nccc3C)s2)oc1=O	IC50	0.5 to 1 nM
COC[C@@H](CO)COc1c(-c2c(OC)cccc2OC)cc(C(=O)Nc2nnc(-n3nccc3N)s2)oc1=O [92A*]	IC50	0.5 to 1 nM
COc1cccnc1-c1cc(C(=O)Nc2nnc(-n3nccc3N)s2)oc(=O)c1O[C@@H]1CCC[C@H](OC)C1 (single isomer, unassigned) [113D*]	IC50	5 to 20 nM
COc1cccc(OC)c1-c1cc(C(=O)Nc2nnc(-n3nccc3N)s2)oc(=O)c1OC[C@@H]1COCCO1 (single isomer, unassigned) [Compound 43A*]	IC50	0.5 to 1 nM
COc1cccc(OC)c1-c1cc(C(=O)Nc2nnc(-n3nccc3N)s2)oc(=O)c1O[C@@H]1CCCC[C@H]1O (single isomer, unassigned) [110A*]	IC50	1 to 5 nM

Attention now turns to another entry.
Challenge: What value of IC50 has been reported for the following molecule? COCCOc1c(-c2c(OC)cccc2OC)cc(C(=O)Nc2nnc(-n3nccc3N)s2)oc1=O
Response given: 0.5 to 1 nM

====

- Tested target: hcGAS (Homo sapiens)
- Test method notes: hcGAS LCMS assay (direct measurement of cGAMP production by LC/MS)
- Type: biochemical
- Cond: 4 h incubation with enzyme and substrates; cGAMP production by LC/MS; class symbols; read-out: hcGAS LCMS IC50
Entries and their measured IC50 follow.

Known IC50 results, listed for orientation:
Compound	Result
COc1cccc(OC)c1-c1cc(C(=O)Nc2nnc(-n3nccc3N)s2)oc(=O)c1O[C@@H](C)CO (single isomer, unassigned) [Compound 55A*]	0.5 to 1 nM
COc1cccc(OC)c1-c1cc(C(=O)Nc2nnc(-n3nccc3N)s2)oc(=O)c1OCCN1CCCSCC1	0.5 to 1 nM
COCCOc1c(-c2c(OC)cccc2OC)cc(C(=O)Nc2nnc(-c3ncsc3N)s2)oc1=O	0.5 to 1 nM
COc1cccc(OC)c1-c1cc(C(=O)Nc2nnc(-n3nccc3N)s2)oc(=O)c1O[C@@H](CO)C1CC1 [106B*]	1 to 5 nM
COc1c(-c2nn(C)cc2C#N)cc(C(=O)Nc2nnc(-n3nccc3C)s2)oc1=O	5 to 20 nM
COCCOc1c(-c2nc(OC)ccc2OC)cc(C(=O)Nc2nnc(-n3nccc3N)s2)oc1=O	1 to 5 nM
COc1cccc(OC)c1-c1cc(C(=O)Nc2nnc(-n3nccc3N)s2)oc(=O)c1OCC(C)(C)CO	0.5 to 1 nM
COc1cccc(OC)c1-c1cc(C(=O)Nc2nnc(-n3nccc3N)s2)oc(=O)c1OCCN1C[C@H]2C[C@@H]1CS2 [93B*]	0.5 to 1 nM

Challenge: Fill in: IC50 of COCCOc1c(-c2c(C)cccc2C#N)cc(C(=O)Nc2nnc(-n3nccc3N)s2)oc1=O (single isomer, unassigned) [Compound 24A*] is ___
Response given: < 0.5 nM

Challenge: Also check COCCOc1c(-c2c(OC)ccnc2OC)cc(C(=O)Nc2nnc(-n3nccc3N)s2)oc1=O
Response given: 1 to 5 nM

====

- Tested target: UniProt:Q8N884
- Test method notes: hcGAS LCMS assay (direct measurement of cGAMP production by LC/MS)
- Format: biochemical
- Cond: 4 h incubation with enzyme and substrates; cGAMP production by LC/MS; class symbols; read-out: hcGAS LCMS IC50
pIC50: −log10 of the molar value.
Recorded endpoint: pIC50

Reference set, count: 5
Compound	Recorded endpoint	Result
COc1cccc(OC)c1-c1cc(C(=O)Nc2nnc(-n3nccc3N)s2)oc(=O)c1O[C@@H](CO)CN1CCSCC1 [81B*]	pIC50	8.30 to 9.00
COc1cccc(OC)c1-c1cc(C(=O)Nc2nnc(-n3nccc3N)s2)oc(=O)c1OCCC(C)(C)O	pIC50	> 9.30
COc1cccc(OC)c1-c1cc(C(=O)Nc2nnc(-n3nccc3N)s2)oc(=O)c1OC[C@H](C)OC	pIC50	> 9.30
COc1cccnc1-c1cc(C(=O)Nc2nnc(-n3nccc3N)s2)oc(=O)c1O[C@@H]1CCC[C@@H](OC)C1 (single isomer, unassigned) [113A*]	pIC50	8.30 to 9.00
COc1cccc(OC)c1-c1cc(C(=O)Nc2nnc(-n3nccc3N)s2)oc(=O)c1OCC(CO)N1CCOCC1 (racemic)	pIC50	8.30 to 9.00

Challenge: So what's the measured pIC50 for this one? COc1cccc(OC)c1-c1cc(C(=O)Nc2nnc(-n3nccc3N)s2)oc(=O)c1OC[C@H]1CCCO1 [56B*]
Response given: 9.00 to 9.30

Challenge: How about COc1cccc(OC)c1-c1cc(C(=O)Nc2nnc(-n3nccc3N)s2)oc(=O)c1O[C@H]1CCCC[C@@H]1O (single isomer, unassigned) [110B*] ?
Response given: 9.00 to 9.30

Challenge: Try the compound COc1c(-c2c(C#N)cnn2C)cc(C(=O)Nc2nnc(-n3nccc3C)s2)oc1=O
Response given: 7.22 to 7.70

Challenge: // next record COc1cccc(OC)c1-c1cc(C(=O)Nc2nnc(-n3nccc3N)s2)oc(=O)c1O[C@@H]1CCC[C@@H](O)C1 (single isomer, unassigned) [109A*]
Response given: 8.30 to 9.00

Challenge: Subsequent entry: COc1cccnc1-c1cc(C(=O)Nc2nnc(-n3nccc3N)s2)oc(=O)c1OCC(C)(C)CO
Response given: 8.30 to 9.00

Challenge: Continue with COc1cccc(OC)c1-c1cc(C(=O)Nc2nnc(-n3nccc3N)s2)oc(=O)c1OCCN1CCO[C@H](CSC)C1 [82A*]
Response given: 8.30 to 9.00

Challenge: Cool, now COc1cccc(OC)c1-c1cc(C(=O)Nc2nnc(-n3nccc3N)s2)oc(=O)c1O[C@H]1CCC[C@H](O)C1 (single isomer, unassigned) [109B*]
Response given: 9.00 to 9.30

Challenge: Also need COc1cccc(OC)c1-c1cc(C(=O)Nc2nnc(-n3nccc3N)s2)oc(=O)c1OC(CO)CN1CCOCC1 (racemic) , thanks.
Response given: 8.30 to 9.00
